System: COLO 205 colon
Experiment: NCI tumour cell line growth inhibition, 48 h
What TGI was measured for each of the following?
Number in µM, nothing else.

Any idea what TGI was measured for CC(C)=CC1CC(C)C2(CCC3(C)CC4C(C(=O)CC4(C)O)/C(C=O)=C\CC32)O1 (stereo not given) ?
0.153

Any idea what TGI was measured for `CN1C(=O)C(c2c[nH]c3ccccc23)=C(c2c(-c3c[nH]c4ccccc34)[nH]c3ccccc23)C1=O` ?
7.89

====

What log10(TGI) was measured for each of the following?
Test system: CCRF-CEM leukemia
Assay: NCI tumour cell line growth inhibition, 48 h
Record value = log10 of TGI given in µM.

Test system CCRF-CEM leukemia; read-out log10(TGI); what value for `NC(=O)c1c2c(cc3c(=O)c4ccccc4[nH]c13)CCCC2` ?
1.99

Test system CCRF-CEM leukemia; read-out log10(TGI); what value for CC(=O)O[C@H]1CC[C@@]2(C)C(=CC[C@@H]3C2CC[C@]2(C)Nc4[nH]ncc4CC32)C1 (stereo not given in full) ?
1.61

Test system CCRF-CEM leukemia; read-out log10(TGI); what value for `COC(=O)n1c(CBr)c(Br)c2ccccc21` ?
1.85

Test system CCRF-CEM leukemia; read-out log10(TGI); what value for `NC1=C(Cl)C(=O)c2ccccc2C1=O` ?
1.51

Test system CCRF-CEM leukemia; read-out log10(TGI); what value for `COc1cc2c(cc1OCCCN1CCN(c3cc(=O)oc4c(C)c(OC)ccc34)CC1)N=C[C@@H]1CCCN1C2=O` ?
0.13

Test system CCRF-CEM leukemia; read-out log10(TGI); what value for `COc1cc2c(cc1OC)-c1c(c3ccc([N+](=O)[O-])cc3c(=O)n1CCCN)C2=O` ?
0.38

Test system CCRF-CEM leukemia; read-out log10(TGI); what value for `N#Cc1c(N2CCN(c3ccc([N+](=O)[O-])cc3)CC2)[n+](=O)c2ccc(Cl)cc2n1[O-]` ?
0.62

Test system CCRF-CEM leukemia; read-out log10(TGI); what value for COc1cc2c(c(OC)c1OC)-c1ccc(SC)c(=O)cc1C(CC(=O)Oc1cccc(C#N)c1)C2 (stereo not given) ?
0.73
